# measuredOn: Inadl_8, Q8NI35
# Sequence (Q8NI35 1425-1530): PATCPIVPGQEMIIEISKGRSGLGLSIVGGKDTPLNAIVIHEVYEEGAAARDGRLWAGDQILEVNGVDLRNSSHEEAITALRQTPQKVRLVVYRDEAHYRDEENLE
# procedureDetails: holdup assay
# Set-up: key: below the threshold = too weak to quantify, mostly under pKd 3.1 to 4
# conditionInfo: plain residues with an end cap or a label only (N-terminal biotin on a linker: ado-ado)
readoutLabel: pKd

Please review the entries below; each comes with its answer.
PSDSVGKDVF [EGLN1, Q9GZT9]    below the threshold
GDSSRKEYFI [GYPC, P04921]    below the threshold
FVFESRKEIL [TBPL1, P62380]    below the threshold
SRPHTNETSL [MCC, P23508]    below the threshold
VYEVPVETKF [SLC26A3, P40879]    below the threshold

Lab note: next binder to report on.
## Input Entry under review: QRYPGNQTTC [CCL24, O00175] . Reported pKd?
## Output below the threshold
